Biological target: UniProt:P08170
Sequence (P08170 1-839): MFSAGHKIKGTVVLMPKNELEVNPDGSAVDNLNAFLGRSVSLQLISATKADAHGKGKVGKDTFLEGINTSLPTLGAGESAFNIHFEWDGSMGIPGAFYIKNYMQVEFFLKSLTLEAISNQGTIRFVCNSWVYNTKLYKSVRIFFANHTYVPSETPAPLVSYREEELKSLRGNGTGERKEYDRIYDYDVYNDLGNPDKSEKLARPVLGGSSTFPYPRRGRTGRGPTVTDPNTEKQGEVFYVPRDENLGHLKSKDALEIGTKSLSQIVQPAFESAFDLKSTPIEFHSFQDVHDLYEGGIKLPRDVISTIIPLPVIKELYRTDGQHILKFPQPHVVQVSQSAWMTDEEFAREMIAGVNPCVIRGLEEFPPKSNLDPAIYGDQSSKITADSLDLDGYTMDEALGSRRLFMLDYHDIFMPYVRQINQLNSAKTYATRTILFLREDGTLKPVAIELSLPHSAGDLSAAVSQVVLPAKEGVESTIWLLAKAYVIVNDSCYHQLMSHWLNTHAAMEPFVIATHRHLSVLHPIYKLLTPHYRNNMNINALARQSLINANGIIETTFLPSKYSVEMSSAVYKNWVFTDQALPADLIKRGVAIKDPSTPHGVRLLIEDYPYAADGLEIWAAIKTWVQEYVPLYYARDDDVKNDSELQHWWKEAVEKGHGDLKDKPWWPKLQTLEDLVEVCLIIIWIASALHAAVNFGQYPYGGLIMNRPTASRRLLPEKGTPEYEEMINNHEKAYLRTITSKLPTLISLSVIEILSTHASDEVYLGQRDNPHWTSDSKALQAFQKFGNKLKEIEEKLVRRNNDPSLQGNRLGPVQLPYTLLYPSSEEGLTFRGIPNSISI
Assay: Lipoxidase Inhibition Test (inhibition of the oxidation of linoleic acid by lipoxidase)
Assay type: biochemical
Details: Lipoxidase Inhibiting Capacity; 0.5% by weight solution in ethanol of the material in test substrate solution; borate buffer pH 9.0; 234 nm
Each item that follows carries a reported LIC value.
result type: LIC value

[
  {
    "compound": "CC(=O)OC1CCC(C(C)(C)C)CC1 (centres unmarked) [p-t-Butyl cyclohexyl acetate]",
    "tested on": "UniProt:P08170",
    "result type": "LIC value",
    "result": "54%"
  },
  {
    "compound": "O=C(OCc1ccccc1)c1ccccc1O [Benzyl salicylate]",
    "tested on": "UniProt:P08170",
    "result type": "LIC value",
    "result": "0%"
  },
  {
    "compound": "CC(C=O)Cc1ccc(C(C)(C)C)cc1 (centres unmarked)",
    "tested on": "UniProt:P08170",
    "result type": "LIC value",
    "result": "74%"
  },
  {
    "compound": "COC(=O)c1c(C)cc(O)c(C)c1O",
    "tested on": "UniProt:P08170",
    "result type": "LIC value",
    "result": "100%"
  },
  {
    "compound": "COc1ccc2ccccc2c1",
    "tested on": "UniProt:P08170",
    "result type": "LIC value",
    "result": "100%"
  },
  {
    "compound": "OCCc1ccccc1",
    "tested on": "UniProt:P08170",
    "result type": "LIC value",
    "result": "22%"
  },
  {
    "compound": "CCOc1cc(C=O)ccc1O",
    "tested on": "UniProt:P08170",
    "result type": "LIC value",
    "result": "100%"
  },
  {
    "compound": "O=c1ccc2ccccc2o1",
    "tested on": "UniProt:P08170",
    "result type": "LIC value",
    "result": "58%"
  }
]
